Test system: COLO 205 colon
Experiment: NCI tumour cell line growth inhibition, 48 h
Measurement name: TGI

>>> print(df.to_string())
                                   molecule    result
0               CSCC(COC(C)=O)(CSC)c1ccncc1  > 100 µM
1           COc1cc2nc3n(c(=O)c2cc1OC)CCCCC3  > 100 µM
2  CCOC(=O)C1=C(C)N(c2ccc(Cl)cc2)C2(O)C=CC(Nc3ccc(Cl)cc3)=C3C(=O)N(c4ccccc4)C(=O)C312 (stereo not drawn)    7.2 µM

---

Test system: 786-0 renal
Experiment: NCI tumour cell line growth inhibition, 48 h
TGI by entry:
Measurement name: TGI (µM)

In [3]: df
Out[3]:
                                        mol  measurement_name  units_text  comparative_sign  numeric_result
0  Clc1ccc(Nc2nnc(CNc3ccc(-c4nnc(Nc5ccc(Cl)cc5)o4)cc3)o2)cc1               TGI          µM                 =            21.8
1  C=C(C)[C@@H]1CC[C@]2(C(=O)N3CCN(C)CC3)CC[C@]3(C)[C@H](CC[C@@H]4[C@@]5(C)CC[C@H](O)C(C)(C)[C@@H]5CC[C@]43C)[C@@H]12               TGI          µM                 =            3.17
2  COC(=O)[C@H](C)[C@@H]1CC[C@](C)(CCC2=C(C)CCCC2(C)C)OO1               TGI          µM                 >              25
3  Cc1cc(C)c(C(=O)/C(=C/c2ccccc2)c2ccccc2)c(C)c1               TGI          µM                 >             100

All figures here come from PubChem BioAssay (NCI).
